Parameter: TGI. Scope: all listed entries.
System: HOP-92 NSCLC
test.name: NCI tumour cell line growth inhibition, 48 h

A selection of reference data follows.
O=C(NCCCl)NCc1ccccc1: > 100 µM
COc1ccccc1[C@@H]1CCC2CC[C@@H](c3ccccc3OC)[N+]21Cc1ccccc1 (stereo partly drawn): 4.06 µM
COc1cc(C(=O)N(C(=O)N2CCCCC2)c2ccccc2)cc(OC)c1OC: > 100 µM
CC(O)c1ccc(C(O)/C(=N\NC(=O)c2ccncc2)c2nc3ccc([N+](=O)[O-])cc3[nH]c2=O)cc1 (stereo not drawn): > 100 µM

I am curious: what TGI value has been reported for CC(=O)Oc1cc(OC(C)=O)c2c(c1)OC(c1ccc(OC(C)=O)c(OC(C)=O)c1)CC2=O (stereo not drawn) ?
69.4 µM

Quick one: TGI of Nc1nc(Cl)nc2c1ncn2C1OC(CO)C(O)C1O (stereo not drawn) ?
> 100 µM

Request the reported TGI associated with COC(=O)[C@@H](NC(=O)c1ccc(CNC(=O)/C(C)=C/c2ccccc2)cc1)C(C)C
> 100 µM

I am curious: what TGI value has been reported for O=C1Nc2c(ccc(Cl)c2Cl)/C1=C\c1cc(C(F)(F)F)cc(C(F)(F)F)c1 ?
7.42 µM

Which TGI is reported for this molecule? CON(C(=O)OC(C)(C)C)c1ccccc1
> 100 µM

Which TGI is listed for N/C(=N/N=C/c1cccc(F)c1)NO ?
> 100 µM

Fill in: TGI of CCSc1[nH]c(NC(=NC(C)C)NC(=O)c2ccccc2)c(C(N)=O)c1C(N)=O is ___
> 10 µM

Suppose we examine the molecule O=c1cc(NNc2cccc(F)c2)[nH]c(=S)[nH]1 ; what TGI value has been reported?
99.5 µM

What does the record list as TGI for Cc1nc(-n2nc(-c3ccccc3)cc2-c2ccccc2)sc1C(/C=C/c1ccc([N+](=O)[O-])cc1)=N/NC(N)=S ?
> 100 µM
